biological target: 5-HT2A receptor (Homo sapiens); assay: Assay for 5-HT2A receptor inverse agonist activity (NIH3T3-5-HT2A R cells, Bright-Glo luciferase, cell inhibition rate)
Sequence (P28223 whole entry): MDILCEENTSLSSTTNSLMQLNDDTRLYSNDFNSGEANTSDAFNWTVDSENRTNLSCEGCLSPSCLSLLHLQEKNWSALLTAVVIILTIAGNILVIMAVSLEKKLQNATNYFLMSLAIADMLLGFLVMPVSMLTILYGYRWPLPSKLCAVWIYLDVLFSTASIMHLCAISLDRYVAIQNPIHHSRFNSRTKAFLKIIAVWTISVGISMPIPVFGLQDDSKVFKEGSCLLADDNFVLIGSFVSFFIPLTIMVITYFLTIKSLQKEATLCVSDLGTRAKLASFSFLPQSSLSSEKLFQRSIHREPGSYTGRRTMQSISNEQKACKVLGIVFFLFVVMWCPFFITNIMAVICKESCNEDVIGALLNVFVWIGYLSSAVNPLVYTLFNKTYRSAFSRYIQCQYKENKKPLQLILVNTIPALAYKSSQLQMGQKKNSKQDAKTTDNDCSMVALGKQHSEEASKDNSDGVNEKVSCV
Examples of compounds with documented IC50 follow.

Answered cases to consult:
Dear colleague, I am looking for the recorded IC50 of the following compound: CN1CCC(N(Cc2ccc(F)cn2)C(=O)NCc2ccc(OCC3CC3(C)C)cn2)CC1 (stereo not drawn)
> 1000 nM

So what does the record say about IC50 for CC(C)COc1ccc(CNC(=O)N(Cc2ccc3ncccc3c2)C2CCN(C)CC2)nc1 ?
> 1000 nM

Proceeding to the next compound to report its IC50.
# input compound: CN1CC[C@@H](N(Cc2ccc(F)cc2)C(=O)NCc2ccc3ncccc3c2)[C@@H](F)C1 [Compound 86A] ; wanted: its IC50
> 1000 nM
